These measurements were taken from paper PMC9260081.

# NT screening (rotarod), minimum neurotoxic dose in half or more of the mice per entry
# Test system: ability to maintain equilibrium on rotating rod
# assay_summary: Neurotoxicity screening (rotarod test)
# Format: in vivo
# run_conditions: i.p., 0.5 h after injection, dosages 30, 100, 300 mg/kg
measured_metric: NT screening (rotarod), minimum neurotoxic dose in half or more of the mice

smiles_str | value_observed
c1ccc(COc2ccc(-c3ccnc4ncnn34)cc2)cc1 | 300 mg/kg
CCCCCCOc1ccc(-c2ccnc3ncnn23)cc1 | 300 mg/kg

###

# IC50 per entry
# measurement_target: GABAA BZD receptor
# assay_summary: Radioligand receptor binding assay ([3H]-flumazenil competition)
# run_conditions: competition with 0.5 nM [3H]-flumazenil, rat brain membranes; 95% CI in brackets
measured_metric: IC50 (nM)

molecule | measurement_target | readout_unit | value_observed
CCCCCCOc1ccc(-c2ccnc3ncnn23)cc1 | GABAA BZD receptor | nM | 8.4
CN1C(=O)CN=C(c2ccccc2)c2cc(Cl)ccc21 [Diazepam, reference compound] | GABAA BZD receptor | nM | 1.3
